meta.source: patent US10952999B2

For each record, write down the corresponding log10 of GI50.
- Tested on: MDS-RAEB (myelodysplastic syndrome-excess blasts type) cell line SKM-1
- test_protocol: Cancer cell growth, Cell Titer-Glo cell viability assay, 72 hours
- Format: cell-based
- stated_conditions: Homo sapiens; SKM-1, 72 hours
All values: base-10 log of GI50 in nM.

Use these answered entries as a reference point.
> print(dat)
                                    compound                              assay.target  measured.number
 1  COCCN[C@H]1CC[C@H](Nc2cc(-c3csc(NCC4CCOCC4)n3)ccn2)CC1  MDS-RAEB (myelodysplastic syndrome-excess blasts type) cell line SKM-1             3.04
 2  COCCN[C@H]1CC[C@H](Nc2cc(-c3csc(OCC4CCOCC4)n3)c(Cl)cn2)CC1  MDS-RAEB (myelodysplastic syndrome-excess blasts type) cell line SKM-1             2.70
 3  COCCN[C@H]1CC[C@H](Nc2cc(-c3csc(NCC4CC4)n3)c(Cl)cn2)CC1  MDS-RAEB (myelodysplastic syndrome-excess blasts type) cell line SKM-1             2.41
 4  COCCN[C@H]1CC[C@H](Nc2cc(-c3csc(NCC4(C#N)CCOCC4)n3)c(Cl)cn2)CC1  MDS-RAEB (myelodysplastic syndrome-excess blasts type) cell line SKM-1             0.30
 5  COC[C@@H](C)N[C@H]1CC[C@H](Nc2cc(-c3csc(NCC4CCOCC4)n3)c(Cl)cn2)CC1  MDS-RAEB (myelodysplastic syndrome-excess blasts type) cell line SKM-1             1.99
 6  COC[C@H](C)N[C@H]1CC[C@H](Nc2cc(-c3csc(NCC4CCOCC4)n3)c(Cl)cn2)CC1  MDS-RAEB (myelodysplastic syndrome-excess blasts type) cell line SKM-1             2.54
 7  CNc1nc(-c2cc(N[C@H]3CC[C@H](NCCOC)CC3)ncc2Cl)cs1  MDS-RAEB (myelodysplastic syndrome-excess blasts type) cell line SKM-1             2.88
 8  COCCN[C@H]1CC[C@H](Nc2cc(-c3csc(NCc4ccccc4)n3)c(Cl)cn2)CC1  MDS-RAEB (myelodysplastic syndrome-excess blasts type) cell line SKM-1             2.23
 9  COCCN[C@H]1CC[C@H](Nc2cc(-c3csc(NCC4CCCCC4)n3)c(Cl)cn2)CC1  MDS-RAEB (myelodysplastic syndrome-excess blasts type) cell line SKM-1             2.52
10  COC[C@@H](C)N[C@H]1CC[C@H](Nc2cc(-c3csc(NCC4(C#N)CCOCC4)n3)c(Cl)cn2)CC1  MDS-RAEB (myelodysplastic syndrome-excess blasts type) cell line SKM-1             1.52

Give log10 of GI50 for all compounds that follow.
1. CCc1cnn2c(NCc3ccc[n+]([O-])c3)cc(N3CCCC[C@H]3CCO)nc12 [Dinaciclib, reference compound]
2. N[C@H]1CC[C@H](Nc2cc(-c3csc(NCC4CCOCC4)n3)c(Cl)cn2)CC1
3. O=C(Nc1cc(-c2csc(NCC3CCOCC3)n2)c(Cl)cn1)c1ccc(F)cc1
4. COCCN[C@H]1CC[C@H](Nc2cc(-c3csc(NCc4ccc(F)cc4)n3)c(Cl)cn2)CC1

[1.00, 1.93, 2.18, 2.30]

----------
- Test system: human breast cancer cell SK-Br-3
- test_protocol: Cancer cell growth, Cell Titer-Glo cell viability assay, 72 hours
- Format: cell-based
- stated_conditions: SK-Br-3, 72 hours
measured_endpoint: IC50 (nM)
Give bare numbers, in nM.

> print(dat)
                                   molecule                      assay.target  units.symbol  measured.number
1  CC(=O)c1c(C)c2cnc(Nc3ccc(N4CCNCC4)cn3)nc2n(C2CCCC2)c1=O [Palbociclib, reference compound]  human breast cancer cell SK-Br-3            nM             3200

# evaluate next
For the molecule shown here, COC[C@@H](C)N[C@H]1CC[C@H](Nc2cc(-c3csc(NCC4(C#N)CCOCC4)n3)c(Cl)cn2)CC1 [Compound 1] , give the reported IC50.
40

----------
- assay_target: CDK14/cyclin Y (Homo sapiens, UniProt O94921)
- Sequence (O94921 whole entry): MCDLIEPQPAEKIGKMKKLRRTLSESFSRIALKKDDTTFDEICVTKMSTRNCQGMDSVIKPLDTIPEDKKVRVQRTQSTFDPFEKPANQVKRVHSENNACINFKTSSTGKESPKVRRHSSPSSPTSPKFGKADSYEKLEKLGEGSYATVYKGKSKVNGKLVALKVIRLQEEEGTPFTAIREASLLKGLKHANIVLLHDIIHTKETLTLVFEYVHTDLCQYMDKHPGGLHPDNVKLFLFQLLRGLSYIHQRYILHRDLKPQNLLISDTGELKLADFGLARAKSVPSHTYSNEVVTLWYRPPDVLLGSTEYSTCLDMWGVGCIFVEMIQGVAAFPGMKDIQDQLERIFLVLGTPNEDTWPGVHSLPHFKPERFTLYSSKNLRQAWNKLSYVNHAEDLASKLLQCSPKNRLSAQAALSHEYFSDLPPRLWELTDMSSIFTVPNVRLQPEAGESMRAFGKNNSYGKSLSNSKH
- Sequence (Q8ND76 whole entry partner): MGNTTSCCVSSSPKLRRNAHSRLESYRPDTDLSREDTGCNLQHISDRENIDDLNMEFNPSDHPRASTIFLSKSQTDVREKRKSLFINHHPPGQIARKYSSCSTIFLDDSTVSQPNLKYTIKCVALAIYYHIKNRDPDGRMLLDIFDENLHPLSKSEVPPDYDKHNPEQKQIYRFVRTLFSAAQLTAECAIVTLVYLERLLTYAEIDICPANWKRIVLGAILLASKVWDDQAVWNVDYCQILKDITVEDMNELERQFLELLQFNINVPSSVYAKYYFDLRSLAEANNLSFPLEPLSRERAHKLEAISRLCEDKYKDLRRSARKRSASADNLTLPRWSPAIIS
- test_protocol: Enzyme assay for inhibition of CDK protein in vitro (Z-LYTE)
measured_endpoint: pIC50
Numbers only, as −log10 of the molar value.

For the compound shown here, COC[C@@H](C)N[C@H]1CC[C@H](Nc2cc(-c3csc(NCC4(C#N)CCOCC4)n3)c(Cl)cn2)CC1 [Compound 1] , give the reported pIC50.
5.57

----------
- assay_target: CDK7/cyclin HMNAT1 (Homo sapiens, UniProt P50613)
- Sequence (P50613 whole entry): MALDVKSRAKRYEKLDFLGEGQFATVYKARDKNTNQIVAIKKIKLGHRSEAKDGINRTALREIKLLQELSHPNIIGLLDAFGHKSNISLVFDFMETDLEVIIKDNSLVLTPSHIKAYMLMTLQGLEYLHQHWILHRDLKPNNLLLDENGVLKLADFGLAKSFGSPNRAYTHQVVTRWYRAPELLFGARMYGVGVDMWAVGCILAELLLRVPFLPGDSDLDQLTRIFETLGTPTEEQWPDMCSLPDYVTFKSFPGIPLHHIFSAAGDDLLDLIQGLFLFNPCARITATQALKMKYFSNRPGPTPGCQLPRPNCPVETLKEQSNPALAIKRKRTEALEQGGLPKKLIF
- Sequence (P51946 whole entry partner): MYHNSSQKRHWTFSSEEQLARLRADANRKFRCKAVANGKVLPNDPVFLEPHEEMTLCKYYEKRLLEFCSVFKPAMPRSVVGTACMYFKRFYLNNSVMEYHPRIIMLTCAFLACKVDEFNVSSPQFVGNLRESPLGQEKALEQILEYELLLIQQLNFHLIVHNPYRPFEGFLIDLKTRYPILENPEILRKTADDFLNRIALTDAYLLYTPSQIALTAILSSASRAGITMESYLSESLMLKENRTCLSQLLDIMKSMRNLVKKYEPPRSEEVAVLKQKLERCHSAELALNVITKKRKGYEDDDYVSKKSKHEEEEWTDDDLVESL
- Sequence (P51948 whole entry partner): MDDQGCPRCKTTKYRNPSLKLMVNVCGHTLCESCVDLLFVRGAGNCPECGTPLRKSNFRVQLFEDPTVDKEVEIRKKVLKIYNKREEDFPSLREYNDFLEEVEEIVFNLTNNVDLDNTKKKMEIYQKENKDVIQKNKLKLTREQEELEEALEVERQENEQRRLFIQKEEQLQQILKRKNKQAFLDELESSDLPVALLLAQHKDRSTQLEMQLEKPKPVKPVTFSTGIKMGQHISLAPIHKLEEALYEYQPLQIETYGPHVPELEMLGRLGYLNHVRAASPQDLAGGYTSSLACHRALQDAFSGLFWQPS
- test_protocol: Enzyme assay for inhibition of CDK protein in vitro (Z-LYTE)
measured_endpoint: IC50
Write down the value, and be sure its unit follows.

For the compound shown here, `COC[C@@H](C)N[C@H]1CC[C@H](Nc2cc(-c3csc(NCC4(C#N)CCOCC4)n3)c(Cl)cn2)CC1` , give the reported IC50.
3.7 µM

----------
- Test system: acute myelocytic leukemia (AML) OCI-AML-3
- test_protocol: Cancer cell growth, Cell Titer-Glo cell viability assay, 72 hours
- Format: cell-based
- stated_conditions: Homo sapiens, OCI-AML-3; OCI-AML3, 72 hours
For each record, write down the corresponding GI50.
Give bare numbers, in nM.

Use these answered entries as a reference point.
> print(dat)
                                   compound  measured.number
1  COCCN[C@H]1CC[C@H](Nc2cc(-c3csc(OCC4CCOCC4)n3)c(Cl)cn2)CC1 [Compound 16]              630
2  CNc1nc(-c2cc(N[C@H]3CC[C@H](NCCOC)CC3)ncc2Cl)cs1 [Compound 9]             1100
3  COCCN[C@H]1CC[C@H](Nc2cc(-c3csc(NCc4ccc(F)cc4)n3)c(Cl)cn2)CC1 [Compound 12]              390

# evaluate next
For the compound shown here, COC[C@H](C)N[C@H]1CC[C@H](Nc2cc(-c3csc(NCC4CCOCC4)n3)c(Cl)cn2)CC1 [Compound 5] , give the reported GI50.
820

----------
- Test system: acute B cell leukemia cell line MEC-2
- test_protocol: Cancer cell growth, Cell Titer-Glo cell viability assay, 72 hours
- Format: cell-based
- stated_conditions: MEC2; MEC-2, 72 hours
measured_endpoint: GI50 (nM)
Numbers only, in nM.

Use these answered entries as a reference point.
> print(dat)
                              smiles.string                           assay.target  measured.number
1  COCCN[C@H]1CC[C@H](Nc2cc(-c3csc(NCC4CC4)n3)c(Cl)cn2)CC1  acute B cell leukemia cell line MEC-2              660
2  COCCN[C@H]1CC[C@H](Nc2cc(-c3csc(OCC4CCOCC4)n3)c(Cl)cn2)CC1  acute B cell leukemia cell line MEC-2              970
3  COCCN[C@H]1CC[C@H](Nc2cc(-c3csc(NCc4ccccc4)n3)c(Cl)cn2)CC1  acute B cell leukemia cell line MEC-2              320

# evaluate next
For the molecule shown here, `COCCN[C@H]1CC[C@H](Nc2cc(-c3csc(NCC4CCOCC4)n3)ccn2)CC1` , give the reported GI50.
1700

----------
- assay_target: CDK3/cyclin E1 (Homo sapiens)
- Sequence (Q00526 whole entry): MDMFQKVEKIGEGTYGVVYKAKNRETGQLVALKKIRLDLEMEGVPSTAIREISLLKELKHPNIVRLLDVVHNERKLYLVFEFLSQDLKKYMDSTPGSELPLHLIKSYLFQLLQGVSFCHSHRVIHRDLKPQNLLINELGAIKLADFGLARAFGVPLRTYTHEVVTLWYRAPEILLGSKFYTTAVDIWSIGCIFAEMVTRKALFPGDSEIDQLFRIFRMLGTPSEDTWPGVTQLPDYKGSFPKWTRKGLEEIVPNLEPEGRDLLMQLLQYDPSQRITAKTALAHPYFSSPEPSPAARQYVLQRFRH
- Sequence (P24864 whole entry partner): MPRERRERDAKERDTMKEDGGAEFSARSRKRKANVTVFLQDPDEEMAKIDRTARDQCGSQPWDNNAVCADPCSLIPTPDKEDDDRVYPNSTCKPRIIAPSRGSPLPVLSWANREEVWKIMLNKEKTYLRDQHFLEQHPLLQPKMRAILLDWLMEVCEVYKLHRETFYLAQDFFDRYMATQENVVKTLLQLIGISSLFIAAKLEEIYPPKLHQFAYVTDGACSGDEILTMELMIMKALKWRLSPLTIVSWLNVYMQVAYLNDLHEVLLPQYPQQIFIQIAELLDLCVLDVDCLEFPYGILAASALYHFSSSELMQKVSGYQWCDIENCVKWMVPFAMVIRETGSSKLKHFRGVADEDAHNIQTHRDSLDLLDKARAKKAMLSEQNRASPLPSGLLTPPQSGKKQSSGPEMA
- test_protocol: Enzyme assay for inhibition of CDK protein in vitro (Z-LYTE)
pIC50: −log10 of the molar value.
For each record, write down the corresponding pIC50.

> print(dat)
                              smiles.string  measured.endpoint  result
1  COCCN[C@H]1CC[C@H](Nc2cc(-c3csc(NCC4(C#N)CCOCC4)n3)c(Cl)cn2)CC1              pIC50  < 5.00

# evaluate next
For the compound shown here, `COC[C@@H](C)N[C@H]1CC[C@H](Nc2cc(-c3csc(NCC4(C#N)CCOCC4)n3)c(Cl)cn2)CC1` , give the reported pIC50.
< 5.00

----------
- Test system: acute myelocytic leukemia (AML) OCI-AML-3
- test_protocol: Cancer cell growth, Cell Titer-Glo cell viability assay, 72 hours
- Format: cell-based
- stated_conditions: Homo sapiens, OCI-AML-3; OCI-AML3, 72 hours
- Source text: […] Cell Titer-Glo® (Promega, USA) chemical self-luminescence cell viability assay kit was used to detect the number of viable cells by quantitatively measuring ATP in living cells, according to which to calculate GI50 and IC50.
measured_endpoint: log10(GI50) (log10 of the value in nM)
All values: base-10 log of GI50 in nM.

Use these answered entries as a reference point.
> print(dat)
                                   compound  measured.endpoint  measured.number
1  COC[C@@H](C)N[C@H]1CC[C@H](Nc2cc(-c3csc(NCC4CCOCC4)n3)c(Cl)cn2)CC1        log10(GI50)             2.18
2  COCCN[C@H]1CC[C@H](Nc2cc(-c3csc(NCC4CCOCC4)n3)ccn2)CC1        log10(GI50)             3.32
3  COCCN[C@H]1CC[C@H](Nc2cc(-c3csc(NCC4CCCCC4)n3)c(Cl)cn2)CC1        log10(GI50)             2.75
4  N[C@H]1CC[C@H](Nc2cc(-c3csc(NCC4CCOCC4)n3)c(Cl)cn2)CC1        log10(GI50)             2.15

Give log10(GI50) for all compounds that follow.
1. COC[C@@H](C)N[C@H]1CC[C@H](Nc2cc(-c3csc(NCC4(C#N)CCOCC4)n3)c(Cl)cn2)CC1
2. CCc1cnn2c(NCc3ccc[n+]([O-])c3)cc(N3CCCC[C@H]3CCO)nc12 [Dinaciclib, reference compound]

1: 1.52; 2: 1.04
